Test system: RARg:RXRa (NR concentration 270 nM, RXRa partner concentration 90 nM)
Assay Details: PBM binding z-score (relative to random genomic background probes); higher = stronger binding; sequences stand for … in GC…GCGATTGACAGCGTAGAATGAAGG
We use 2 as the dividing line for PBM binding z-score: on or above the line is YES, below is NO.

Consider the following illustrative entries.
TCTTGTAGATCAAAGGTTAAGAATGCCGAAGCCT NO
CGTCCAAGGTCAGCAGCTCAGTGAAAGCGACGTG YES

[Q] PBM binding z-score >= 2 for GCTCGAAGGACAAGGTCAGAGCTTTGTCCGTAGA ?
[A] YES

[Q] Quick check: does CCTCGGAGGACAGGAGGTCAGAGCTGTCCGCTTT have PBM binding z-score greater than or equal to 2?
[A] YES

[Q] Please indicate if the recorded PBM binding z-score for CCTACTGGGCCACGAAAGGTCGTTGATTCAGTGA meets or exceeds 2.
[A] NO

[Q] Does the reported PBM binding z-score for CAAACTCGGTCACCGGAAGGTCAAAGTCCGCATG fall at or above the 2 mark?
[A] YES

[Q] Decide: is the reported value of PBM binding z-score for CCTTACGGGTCACTGACAGGTTACAGCATTTGGA equal to or greater than 2?
[A] YES

[Q] For this sequence, is measured PBM binding z-score 2 or higher? GGAACGAGTGCAAAGTTGATAGCATCTGTCGACG
[A] NO

[Q] Confirm if PBM binding z-score reported for the sequence GCATATAGCTAATACAAGGTGAAAGTCCGATTGT is 2 or above.
[A] NO

[Q] Evaluate ATATGTAGGTTACATCCGGCTCATTCAGGCTATG : PBM binding z-score at minimum 2?
[A] NO

[Q] Is reported PBM binding z-score greater than or equal to 2 here: GTACCAAGGTGAATAGCTCGTTGATGAGTAGGCG
[A] NO

[Q] Does CCTGCTAGGTCATGGTCAGCTGATCTACAGTATG have a reported PBM binding z-score of at least 2?
[A] YES

* * *

Provide the reported PBM binding z-score of each item.
System: PPARa:RXRa (NR concentration 270 nM, RXRa partner concentration 90 nM)
Assay Details: PBM binding z-score (relative to random genomic background probes); higher = stronger binding; sequences stand for … in GC…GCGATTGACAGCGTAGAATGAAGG
Give bare numbers.

TTACCAAGGTGAAAGGTCCTTGATGCACGCCTTG 3.88

Please supply PBM binding z-score for each of the following items, keeping them in order.
1. GCAGACAGGTGGAACGCAGGTAACTCAGGGTGGC
2. TCTTGTAGATCAAGCAGGTTAAGTAAGCCTGAGT
3. CGAACTAGGCCATCCAGGACAGTGAATACATTGA
4. TTACCAAGATGAAAGGTCGTTGATGCACGCCTTG
5. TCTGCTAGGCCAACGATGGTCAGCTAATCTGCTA

[A]
-0.427
0.576
1.64
3.04
-0.375

* * *

Test system: PPARg DBDmut IVT, anti-PPARg (DBD mutation: PPARg1 K132A/R137A, NR concentration 270 nM)
Assay Details: PBM binding z-score (relative to random genomic background probes); higher = stronger binding; sequences stand for … in GC…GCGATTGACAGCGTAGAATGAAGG
Value Type: PBM binding z-score
Give bare numbers.

List PBM binding z-score for every entry below, keeping the order given.
1. TCTATTAGTTGATTAGGGCTACCGAAACAGCGGA
2. AATACAGGGTCATCGTAGGCCCGAGTACGCACAG

[A]
0.888
-0.158

Would you be so kind as to report PBM binding z-score for each listed record?
1. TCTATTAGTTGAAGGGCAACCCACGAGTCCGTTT
2. TCTTGTAGATCAATAGAGGTTATGAAAGTGCGCT
3. GCGACTGGGGCATCGGCAGGTTACCATAACTTAA
4. CATACAGGGTCAGCTCGGCCAGAGTAGGGACGGC
5. GCTAGTTGGGCAGTAAAAGGTCACACACCGGTCG
6. CGATCTAGGTCATCCAGGACAGTGAATACATTGA
7. GTACCAAGGTGAATAGGTCGTTCATGAGTAGGCG
8. TCTAGTTGGTCAAAGATCACACACTCGAAATGCG

[A]
1. 0.929
2. 0.487
3. -0.662
4. 0.134
5. -0.41
6. 1.47
7. -1.06
8. 1.22

I'm hoping you can list PBM binding z-score for every sequence here, please.
1. AGTCAAAGTTCGCTAGGTAACGTAAGATTCAGCT
2. ACTAGCAGGCCATGTTTGGGTCACTCAAACAAAG
3. TTACCAAGCTGAAAGGTCGTTGATGCACGCCTTG
4. CCTCGTAGGACAGAAGGTCAGAGCTGTCCGCTTT
5. CAAACTAGGTCAAAGGTCACAGTCGAGCCAACCA
6. TAGCCTAGGTGATGCGGGCCAGTATAGTGTCGGC

[A]
[0.244, -1.08, -0.623, -1.03, 2.73, -0.995]

Below are some sequences; for each one, tell me its PBM binding z-score.
1. CGAACTAGGTCATTGACAGGACATTGAATAGTAA
2. TCTGCTAGGTCAGATGGTCAGCTAACGAGCTGCC

[A]
1: 1.62; 2: -0.32
